Tested on: RXRa DBDmut IVT, anti-RXR (DBD mutation: RXRa K156A/R161A, NR concentration 90 nM)
assay: PBM binding z-score (relative to random genomic background probes); higher = stronger binding; sequences stand for … in GC…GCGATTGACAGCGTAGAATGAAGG
PBM binding z-score vs 0.4: at or above is satisfied, below is not satisfied.

sequence	discrete-label
AGCATGAGGTTATACGTAGATCAGGGAAGAAAGT	satisfied
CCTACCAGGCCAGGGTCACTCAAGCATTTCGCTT	not satisfied
CTCCAAAGGTCGTGCTCAGGTGAGTATACCAAAC	satisfied
TCTTGTAGATCAGCAGGTAAAGAAAGCTGGCCAA	satisfied
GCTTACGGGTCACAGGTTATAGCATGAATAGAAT	satisfied
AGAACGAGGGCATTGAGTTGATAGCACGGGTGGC	satisfied
TCATATAGGTAGACAGGTGAAAGTCCGTAAGTTA	satisfied
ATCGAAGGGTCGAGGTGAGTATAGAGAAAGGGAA	satisfied
GTACCAAGGTGAATAGGTCGTGGATGAGTAGGCG	not satisfied
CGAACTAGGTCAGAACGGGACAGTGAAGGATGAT	satisfied

Exam item: Answer whether PBM binding z-score of "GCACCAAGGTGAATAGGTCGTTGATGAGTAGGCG" is greater than or equal to 0.4.
Marked response: not satisfied

Exam item: Answer whether PBM binding z-score of "TATAGTTGGTCAAAGGTCACACACTCGAAATGCG" is greater than or equal to 0.4.
Marked response: satisfied

Each recorded value in this set is attributed to the supplement of paper PMC6555819.
